Catalogue of interaction score readings, one per entry.
- TARGET_ENTITY: T1, 4H745-AA
- T1 chain: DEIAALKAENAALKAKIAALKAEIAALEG
- TEST_DESCRIPTION: two-hybrid library CCmax;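 note: natural log of median RNA to DNA barcode read ratio; higher means stronger binding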
- CONDITION_SET: mean of both orientations
Keep it simple and answer with nothing but the number.

BINDER	interaction score
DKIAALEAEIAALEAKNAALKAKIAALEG [4H2109-AA]	-0.947
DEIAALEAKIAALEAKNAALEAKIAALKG [4H310-AA]	-0.998
DKNAALKAKIAALEAENAALKAEIAALEG [4H3865-AA]	-0.83
DEIAALKAEIAALKAKNAALEAKIAALEG [4H629-AA]	-1.44
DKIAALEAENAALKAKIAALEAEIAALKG [4H2274-AA]	0.497
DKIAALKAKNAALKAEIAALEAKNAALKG [4H3016-AA]	0.997
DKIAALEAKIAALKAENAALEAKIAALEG [4H2389-AA]	-1.25
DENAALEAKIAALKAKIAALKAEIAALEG [4H1385-AA]	-1.3

query: Any idea what interaction score was measured for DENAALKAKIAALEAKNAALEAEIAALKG [4H1842-AA] ?
result: -1.86

query: Param item = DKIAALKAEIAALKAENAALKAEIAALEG [4H2649-AA] ; retrieve measured interaction score.
result: -0.16

query: So what does the record say about interaction score for DKNAALEAKIAALKAENAALEAEIAALKG [4H3410-AA] ?
result: -0.581

query: Item under review: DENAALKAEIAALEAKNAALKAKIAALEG [4H1597-AA] . Reported interaction score?
result: -1.15

query: I'd like to know its interaction score. The binder in question is DEIAALKAEIAALEAKNAALKAEIAALKG [4H570-AA]
result: -1.48

query: Could you share which interaction score value was measured for DKNAALEAEIAALKAENAALKAKIAALEG [4H3165-AA] ?
result: -0.851
